# system-name: OXA-1 (Escherichia coli)
reported-endpoint: log10 IC50 (log10 of the value in nM)

* NC(=O)CONC(=O)c1ccn(C2=CC3CN(C2)C(=O)N3OS(=O)(=O)[O-])n1.[Na+] (centres unmarked) [Example 52] | 2.49
* O=C(Nc1ccn(C2=CC3CN(C2)C(=O)N3OS(=O)(=O)[O-])n1)c1nccs1.[Na+] (centres unmarked) [Example 34] | 2.11
* O=C1N2CC(n3ccc([C@H](O)CO)n3)=CC(C2)N1OS(=O)(=O)[O-].[Na+] (some centres unmarked) [Example 76] | 2.93
* O=C(N[C@H]1CCNC1)c1ccn(C2=CC3CN(C2)C(=O)N3OS(=O)(=O)O)n1 (some centres unmarked) [Example 82] | 2.04
* [2H]c1nn(C2=CC3CN(C2)C(=O)N3OS(=O)(=O)[O-])c([2H])c1[2H].[Na+] (centres unmarked) [Example 43] | 1.99
* O=C1N2CC(n3cncn3)=CC(C2)N1OS(=O)(=O)[O-].[Na+] (centres unmarked) [Example 5] | 1.69
* O=C(Nc1ccccn1)c1ccn(C2=CC3CN(C2)C(=O)N3OS(=O)(=O)[O-])n1.[Na+] (centres unmarked) [Example 80] | 1.48
* O=C(Nc1ncco1)c1ccn(C2=CC3CN(C2)C(=O)N3OS(=O)(=O)[O-])n1.[Na+] (centres unmarked) [Example 37] | 1.86
